Source of measurements: ChEMBL document CHEMBL1125592

# target-under-test: Voltage-gated L-type calcium channel (Rattus norvegicus, UniProt P22002+Q02485+P27732)
# measurement-protocol: Affinity to bind dihydropyridine receptor (DHP receptor) by inhibiting the radioligand [3H]nitrendipine
# Assay type: protein assay
IC50 values for the compounds below.
Reply numerically in nM, unit not repeated.

compound | IC50 / nM
CCOC(=O)C1=C(C)N=C(C[S+]([O-])c2ccc(OC)cc2)/C(=C(/O)OCC)C1c1ccccc1C(F)(F)F (stereo in doubt; 8b) | 18

Please tell me: IC50 of CC1=C(C#N)C(c2ccccc2C(F)(F)F)/C(=C(\O)OCCO)C(C[S+]([O-])c2ccccc2)=N1 (stereo not drawn) , system Voltage-gated L-type calcium channel (Rattus norvegicus, UniProt P22002+Q02485+P27732)?
1000

Please tell me: IC50 of CCOC(=O)C1=C(C)N=C(CSc2ccccc2)/C(=C(/O)OCC)C1c1ccccc1C(F)(F)F (stereo not drawn) , system Voltage-gated L-type calcium channel (Rattus norvegicus, UniProt P22002+Q02485+P27732)?
1.6

Please tell me: IC50 of CCO/C(O)=C1\C(CS(=O)(=O)c2ccccc2)=NC(C)=C(C#N)C1c1ccco1 (stereo not drawn) , system Voltage-gated L-type calcium channel (Rattus norvegicus, UniProt P22002+Q02485+P27732)?
254
